Recorded values, source PubChem BioAssay (NCI).

experiment: NCI Yeast Anticancer Drug Screen. Data for the mec2-1 strain (AID 157); details: S. cerevisiae mec2-1 strain, at 50.0 µM, hits give high values
About 79,000 compounds went through this panel and 15% of them were active in at least one assay; those are over-represented in the sample as a whole.
quantity-name: growth inhibition (%)
Quick reminder: number only, in %, skip the unit.

Example results:
{"columns": ["compound", "units-symbol", "reported-value"],
 "data": [
  ["CC(=O)/C(N=Nc1ccc(S(=O)(=O)c2ccc(N=N/C(C(C)=O)=C(/C)O)cc2)cc1)=C(\\C)O", "%", -20.4],
  ["COC1CC2CC1C1COCC21 (stereo not drawn)", "%", -4.05],
  ["CCOC(=C[P+](c1ccccc1)(c1ccccc1)c1ccccc1)OCC", "%", 20.8],
  ["CC(=O)OC1CC2CCC1(c1ccccc1)C2 (stereo not drawn)", "%", -25.1],
  ["CC(=O)C1=C(c2ccccc2)N(C2OC(CO)C(O)C(O)C2O)C(S)=C(C#N)C1c1ccc(Cl)cc1 (stereo not drawn)", "%", 23.9]
]}

Prompt line: Item O=c1cc(NCc2cccc3ccccc23)[nH]c(=O)[nH]1 : provide growth inhibition
Response line: 24.1

Prompt line: Quote growth inhibition reported for Cc1c(CCOC=O)c(=O)[nH]c2nncn12 please.
Response line: -29.6

Prompt line: Return reported growth inhibition. Input compound: Cc1ccc2nc(C)cc(N=[N+]=[N-])c2c1
Response line: -21.8

Prompt line: Quote growth inhibition reported for CC1CN(C(=O)C2CCCN(CCc3ccccc3)C2)CC(C)O1 (stereo not drawn) please.
Response line: 2.65

Prompt line: Give the value of growth inhibition reported for the following: c1ccc2c(c1)ccc1c3ccccc3ncc21
Response line: 27.8

Prompt line: Give the reported growth inhibition for this compound. O=S1C2CCC(Br)C1CCC2Br (stereo not drawn)
Response line: -6.15

Prompt line: Give a short answer stating reported growth inhibition for CCCCN1C[C@H](OC(=O)CCC)[C@@H](OC(=O)CCC)[C@H](OC(=O)CCC)[C@H]1COC(=O)CCC .
Response line: -15.7

Prompt line: Supply recorded growth inhibition for CC1CCC(=O)N1c1ccc(N)cc1 (stereo not drawn) here.
Response line: -15.5
